Record form. Attribute: phosphorylation enrichment. Fill in for each entry.
biological target: Fyn (UniProt P06241); experiment: phosphorylation enrichment, bacterial display (enrichment ratio); higher = better substrate or ligand; peptides without Tyr show the background;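 note: 11-residue human phosphosite peptides and single-mutation variants displayed on the E. coli surface, counted by deep sequencing, each peptide's frequency after selection divided by its frequency in the unselected input library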;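 note: frequency after pTyr selection over input frequency; kinase dosed for 20-30% of maximal phosphorylation in three min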
Sequence (P06241 whole entry, looked up): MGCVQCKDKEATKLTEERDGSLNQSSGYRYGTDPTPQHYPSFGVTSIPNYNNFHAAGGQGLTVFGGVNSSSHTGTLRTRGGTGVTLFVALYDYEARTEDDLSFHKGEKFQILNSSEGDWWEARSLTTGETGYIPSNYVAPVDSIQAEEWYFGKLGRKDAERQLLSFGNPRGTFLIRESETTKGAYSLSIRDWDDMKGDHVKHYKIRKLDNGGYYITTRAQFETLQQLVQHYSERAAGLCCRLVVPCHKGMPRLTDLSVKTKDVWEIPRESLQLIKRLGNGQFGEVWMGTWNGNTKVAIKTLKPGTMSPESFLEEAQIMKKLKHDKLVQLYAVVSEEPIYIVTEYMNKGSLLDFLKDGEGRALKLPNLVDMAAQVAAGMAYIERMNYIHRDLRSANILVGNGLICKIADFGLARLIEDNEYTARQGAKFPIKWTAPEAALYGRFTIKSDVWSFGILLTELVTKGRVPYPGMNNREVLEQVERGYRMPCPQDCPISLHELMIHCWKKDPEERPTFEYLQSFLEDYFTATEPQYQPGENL
Respond with the number and no other words.

// fetch phosphorylation enrichment given entry IFGVSYDEYRY [CFTR_Y512]
0.644

// fetch phosphorylation enrichment given entry PVDVAYRRGFF [PLEC_Y2967_YF]
0.424

// fetch phosphorylation enrichment given entry FAKTQYPDIYA [CRX_Y63_V66I]
0.519

// fetch phosphorylation enrichment given entry HRAVEYLLTGI [RAD23A_Y197]
0.739

// fetch phosphorylation enrichment given entry VAVTKYCKEEL [ATP7B_Y1078]
0.455

// fetch phosphorylation enrichment given entry SNYRAYATEPQ [TNNI3_Y29_H34Q]
0.419

// fetch phosphorylation enrichment given entry SVMAEYGLFAA [VSX2_Y219_G223A_YF]
5.82

// fetch phosphorylation enrichment given entry TGEKLYQRKEF [ZNF283_Y627]
0.526

// fetch phosphorylation enrichment given entry FTGVEYSSCDT [EPHA3_Y937]
0.524

// fetch phosphorylation enrichment given entry NPQKSYFIHLY [WAS_Y83_R86H]
0.589

// fetch phosphorylation enrichment given entry LVRPPYSFLAL [FOXI1_Y126_S129L_YF]
0.525

// fetch phosphorylation enrichment given entry GPIIRYDLGGA [CYP11B1_Y81_F79I]
0.412

// fetch phosphorylation enrichment given entry RSAGKYDVFLI [MECP2_Y120_YF]
0.556

// fetch phosphorylation enrichment given entry AQRKLYRNVML [ZNF569_Y33]
0.41

// fetch phosphorylation enrichment given entry PLDGESFTLQI [TP53_Y327_Y327S]
0.569

// fetch phosphorylation enrichment given entry PEVRRHVLPLN [RPE65_Y368_Y368H]
0.587

// fetch phosphorylation enrichment given entry KAIMIYVSSFY [ACTN4_Y260_T259I]
0.368

// fetch phosphorylation enrichment given entry RIGRKCKKVRF [F8_Y442_Y442C]
0.55

// fetch phosphorylation enrichment given entry AALLNYKAGRD [GRIN2A_Y737_V734L]
0.494

// fetch phosphorylation enrichment given entry RRNTFYASIAK [ACADM_Y353_YF]
0.482

// fetch phosphorylation enrichment given entry TFFQMYDKGLV [IARS2_Y231_YF]
0.566

// fetch phosphorylation enrichment given entry NELTYYCCKKD [CD59_Y87]
2.92

// fetch phosphorylation enrichment given entry LFSGDYFRIQG [DDR2_Y740_YF]
1.36

// fetch phosphorylation enrichment given entry KIKLNYTLPQD [NRAP_Y523_N519I]
0.454

// fetch phosphorylation enrichment given entry MSRNLYSGDYY [DDR2_Y736]
5.12

// fetch phosphorylation enrichment given entry AAVPAYDKIRV [STXBP2_Y401]
0.344

// fetch phosphorylation enrichment given entry TVLEPYTDPYY [ZC3H18_Y367_A368T]
0.656

// fetch phosphorylation enrichment given entry LNAGAYSKVVQ [PPT1_Y172]
0.529

// fetch phosphorylation enrichment given entry MFNPCYGLFEF [NEDD4L_Y680_Y679C_YF]
4.92

// fetch phosphorylation enrichment given entry LGGSPYPSVPV [FGFR1_Y701_G703S]
0.564

// fetch phosphorylation enrichment given entry GDDLSYGDVPP [IRS1_Y151_E147D]
0.426

// fetch phosphorylation enrichment given entry NLRQQYNSPQE [UMPS_Y432_G429R]
0.437

// fetch phosphorylation enrichment given entry EHLNRYISDTF [TTLL10_Y446]
0.434

// fetch phosphorylation enrichment given entry ALKKPYGVLFK [RPF2_Y59_YF]
0.562

// fetch phosphorylation enrichment given entry MYDKEYYSVHN [MET_Y1234]
0.64

// fetch phosphorylation enrichment given entry PQIVKYRPDCI [LDHB_Y128_S129R]
0.699

// fetch phosphorylation enrichment given entry QQLVAYYSKHT [SRC_Y232_A237T]
0.889

// fetch phosphorylation enrichment given entry SIFKDYFRFNF [PLA2G2D_Y85_YF]
0.495

// fetch phosphorylation enrichment given entry LVRAFYCERRR [CARD11_Y970]
0.844

// fetch phosphorylation enrichment given entry GVLKEYVVKVL [CPS1_Y529_G530V]
0.389

// fetch phosphorylation enrichment given entry PYRFIYMAVQH [PTPN11_Y515_Q510P]
5.01

// fetch phosphorylation enrichment given entry DEEPPHRGPFC [SASH1_Y551_Y551H]
0.489

// fetch phosphorylation enrichment given entry SVKVYYKKCWS [EPHA7_Y202]
0.352

// fetch phosphorylation enrichment given entry GVSFIYTIDGS [DCX_Y105_R102S_YF]
2.18

// fetch phosphorylation enrichment given entry RNEAFYDTFST [EFCAB3_Y372_S370A]
11.3

// fetch phosphorylation enrichment given entry SVTCTYSPAHN [TP53_Y126_L130H]
0.497

// fetch phosphorylation enrichment given entry ALWYIYLHTRS [ENG_Y614_S615L]
0.432

// fetch phosphorylation enrichment given entry KHCEDYVFSFN [DSC1_Y846_C848F_YF]
0.472

// fetch phosphorylation enrichment given entry PADCRYFAFPQ [GAMT_Y222_YF]
0.817

// fetch phosphorylation enrichment given entry KVMANYMFKAG [MAML2_Y513_YF]
0.344

// fetch phosphorylation enrichment given entry LISVSYDDWDF [GRIN2A_Y281_YF]
0.953

// fetch phosphorylation enrichment given entry YQKDVYNIPPS [NEDD9_Y177_D178N]
4.4

// fetch phosphorylation enrichment given entry FGLDHYQCDCT [PTGS1_Y54_R53H]
0.379

// fetch phosphorylation enrichment given entry RRIHSYRRHLW [VHL_Y112_G114R]
0.65

// fetch phosphorylation enrichment given entry VIKDKYPKARF [APTX_Y209_YF]
0.294

// fetch phosphorylation enrichment given entry YIATQYSLRPR [LBR_Y166]
0.558

// fetch phosphorylation enrichment given entry DAVAVCHGKIS [SH2D1A_Y7_Y7C]
0.472

// fetch phosphorylation enrichment given entry VNYGAYINNFK [GLB1_Y488_D491N]
0.76
